# System: 653999-131-R-J2-PDC complex spheroids, growth % test/control
# assay-info: Anticancer human tumor 653999-131-R-J2-PDC patient-derived lung adenocarcinoma cell line growth inhibition [AhR]
# condition-summary: second compound 0.1 µM; first compound 0.1 µM; active compounds read low
viability, T/C vs 90%: less than gives Condition met; not less than gives Condition not met.

**Query** # strict comparison: is reported viability, T/C < 90%? input = Nc1ccccc1NC(=O)c1ccc(CNC(=O)OCc2cccnc2)cc1 + CC(CO)NC(=O)c1cc(-c2ccc(Cl)cc2)nn(-c2cnn(C)c2)c1=O
**Result** Condition not met

**Query** Now the molecule COc1cc(Nc2ncc3c(n2)-c2ccc(Cl)cc2C(c2c(F)cccc2OC)=NC3)ccc1C(=O)O + Cc1cncc(-c2nc(NCCc3c[nH]c4ccccc34)c3ncn(C(C)C)c3n2)c1
**Result** Condition met

**Query** Now consider COc1ccc([C@@H](O)c2cc(-c3ncnc4cc(N5CCOCC5)ccc34)c(F)cc2Cl)nn1 + CC(CO)NC(=O)c1cc(-c2ccc(Cl)cc2)nn(-c2cnn(C)c2)c1=O .
**Result** Condition met

**Query** Param item: Nc1ccn(C2OC(CO)C(O)C2(F)F)c(=O)n1 (centres undefined) + CC(CO)NC(=O)c1cc(-c2ccc(Cl)cc2)nn(-c2cnn(C)c2)c1=O
**Result** Condition met

**Query** Follow-up entry: CC(C)c1c(-c2ccccc2)nc2c(C#N)c[nH]n2c1=O + CC(CO)NC(=O)c1cc(-c2ccc(Cl)cc2)nn(-c2cnn(C)c2)c1=O
**Result** Condition not met

**Query** Now give it for COc1ccc([C@@H](O)c2cc(-c3ncnc4cc(N5CCOCC5)ccc34)c(F)cc2Cl)nn1 + Cc1cncc(-c2nc(NCCc3c[nH]c4ccccc34)c3ncn(C(C)C)c3n2)c1 too.
**Result** Condition not met

**Query** One more molecule: CC1COCCN1c1cc(-c2ccnn2C)c2ccnc(-c3ccn[nH]3)c2n1 (centres undefined) + Cc1cncc(-c2nc(NCCc3c[nH]c4ccccc34)c3ncn(C(C)C)c3n2)c1
**Result** Condition met

---

# Test system: 653999-131-R-J2-PDC complex spheroids, growth % test/control
# assay-info: Anticancer human tumor 653999-131-R-J2-PDC cell line growth inhibition [AhR];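 note: spheroids exposed to agents for seven days; 100% = DMSO vehicle control viability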
# condition-summary: second compound 3.16 µM; first compound 0.316 µM; active compounds read low
observable: viability, T/C (%)
Expressed in %, but write only the number.

**Query** # get_value(readout='viability, T/C', item= COc1cc(Nc2ncc3c(n2)-c2ccc(Cl)cc2C(c2c(F)cccc2OC)=NC3)ccc1C(=O)O + Cc1ccccc1N=Nc1ccc(NC(=O)c2ccnn2C)c(C)c1 )
**Result** 70.5

**Query** Entry CC1COCCN1c1cc(-c2ccnn2C)c2ccnc(-c3ccn[nH]3)c2n1 (stereo not drawn) + Cc1cncc(-c2nc(NCCc3c[nH]c4ccccc34)c3ncn(C(C)C)c3n2)c1 please
**Result** 38.5

**Query** Record: CC1(C)CCC(CN2CCN(c3ccc(C(=O)NS(=O)(=O)c4ccc(NCC5CCOCC5)c([N+](=O)[O-])c4)c(Oc4cnc5[nH]ccc5c4)c3)CC2)=C(c2ccc(Cl)cc2)C1 + Cc1ccccc1N=Nc1ccc(NC(=O)c2ccnn2C)c(C)c1
**Result** 94.3

---

# System: 653999-131-R-J2-PDC complex spheroids, growth % test/control
# assay-info: Anticancer human tumor 653999-131-R-J2-PDC cell line growth inhibition [AhR];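 note: spheroids exposed to agents for seven days; 100% = DMSO vehicle control viability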
# condition-summary: second compound 0.1 µM; first compound 0.03 µM; active compounds read low
Hi there, I'd appreciate the recorded viability, T/C for every entry that follows.
Output spec: scalar in %, unitless text.

**Query** Need viability, T/C of CC(C)CC(NC(=O)C(Cc1ccccc1)NC(=O)c1cnccn1)B(O)O (centres undefined) + Cc1ccccc1N=Nc1ccc(NC(=O)c2ccnn2C)c(C)c1 , thanks.
**Result** 33.1

**Query** Item: CCN(c1cc(-c2ccc(CN3CCOCC3)cc2)cc(C(=O)NCc2c(C)cc(C)[nH]c2=O)c1C)C1CCOCC1 + Cc1cncc(-c2nc(NCCc3c[nH]c4ccccc34)c3ncn(C(C)C)c3n2)c1
**Result** 105

**Query** Would you mind doing Nc1ncn(C2CC(O)C(CO)S2)c(=O)n1 (centres undefined) + Cc1cncc(-c2nc(NCCc3c[nH]c4ccccc34)c3ncn(C(C)C)c3n2)c1 as well?
**Result** 90.4

**Query** Same again, this time with Nc1ncn(C2CC(O)C(CO)S2)c(=O)n1 (centres undefined) + CC(CO)NC(=O)c1cc(-c2ccc(Cl)cc2)nn(-c2cnn(C)c2)c1=O
**Result** 103

**Query** Another compound to check: Nc1ncn(C2CC(O)C(CO)S2)c(=O)n1 (centres undefined) + Cc1ccccc1N=Nc1ccc(NC(=O)c2ccnn2C)c(C)c1
**Result** 101

**Query** Field entry: CCc1c2c(nc3ccc(O)cc13)-c1cc3c(c(=O)n1C2)COC(=O)[C@]3(O)CC + Cc1ccccc1N=Nc1ccc(NC(=O)c2ccnn2C)c(C)c1
**Result** 34.7

**Query** // repeat for CCc1c2c(nc3ccc(O)cc13)-c1cc3c(c(=O)n1C2)COC(=O)[C@]3(O)CC + Cc1cncc(-c2nc(NCCc3c[nH]c4ccccc34)c3ncn(C(C)C)c3n2)c1 and report
**Result** 27.4

**Query** Continue with CCN(c1cc(-c2ccc(CN3CCOCC3)cc2)cc(C(=O)NCc2c(C)cc(C)[nH]c2=O)c1C)C1CCOCC1 + CC(CO)NC(=O)c1cc(-c2ccc(Cl)cc2)nn(-c2cnn(C)c2)c1=O
**Result** 97.6

**Query** Also O=C(C=Cn1cnc(-c2cc(C(F)(F)F)cc(C(F)(F)F)c2)n1)NNc1cnccn1 + Cc1ccccc1N=Nc1ccc(NC(=O)c2ccnn2C)c(C)c1 ?
**Result** 76.8

---

For each record, write down the corresponding viability, T/C.
# System: 653999-131-R-J2-PDC complex spheroids, growth % test/control
# assay-info: Anticancer human tumor 653999-131-R-J2-PDC cell line growth inhibition [AhR];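 note: spheroids exposed to agents for seven days; 100% = DMSO vehicle control viability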
# condition-summary: second compound 1 µM; first compound 0.1 µM; active compounds read low
Kindly provide the numeric value in % only, without the unit symbol.

**Query** Consider the compound shown here: COc1ccc([C@@H](O)c2cc(-c3ncnc4cc(N5CCOCC5)ccc34)c(F)cc2Cl)nn1 + CC(CO)NC(=O)c1cc(-c2ccc(Cl)cc2)nn(-c2cnn(C)c2)c1=O What is its recorded viability, T/C?
**Result** 95.4

**Query** Queued: COc1cc(Nc2ncc3c(n2)-c2ccc(Cl)cc2C(c2c(F)cccc2OC)=NC3)ccc1C(=O)O + Cc1cncc(-c2nc(NCCc3c[nH]c4ccccc34)c3ncn(C(C)C)c3n2)c1
**Result** 78.6

**Query** Try the compound Nc1ccccc1NC(=O)c1ccc(CNC(=O)OCc2cccnc2)cc1 + Cc1cncc(-c2nc(NCCc3c[nH]c4ccccc34)c3ncn(C(C)C)c3n2)c1
**Result** 86.7

**Query** Record: Cn1ncnc1C1c2n[nH]c(=O)c3cc(F)cc(c23)NC1c1ccc(F)cc1 (configuration not stated) + Cc1ccccc1N=Nc1ccc(NC(=O)c2ccnn2C)c(C)c1
**Result** 95.6

**Query** Next record, please: COc1cccc2c1C(=O)c1c(O)c3c(c(O)c1C2=O)CC(O)(C(=O)CO)CC3OC1CC(N)C(O)C(C)O1 (configuration not stated) + Cc1ccccc1N=Nc1ccc(NC(=O)c2ccnn2C)c(C)c1
**Result** 44

**Query** Try this compound too: O=C(C=Cc1cccc(S(=O)(=O)Nc2ccccc2)c1)NO + Cc1cncc(-c2nc(NCCc3c[nH]c4ccccc34)c3ncn(C(C)C)c3n2)c1
**Result** 104

**Query** For CC[C@@]1(O)C(=O)OCc2c1cc1n(c2=O)Cc2cc3c(CN(C)C)c(O)ccc3nc2-1 + Cc1ccccc1N=Nc1ccc(NC(=O)c2ccnn2C)c(C)c1 then?
**Result** 44.2

**Query** What about COc1cc(Nc2ncc3c(n2)-c2ccc(Cl)cc2C(c2c(F)cccc2OC)=NC3)ccc1C(=O)O + Cc1ccccc1N=Nc1ccc(NC(=O)c2ccnn2C)c(C)c1 ?
**Result** 74

**Query** Also check Nc1ccn(C2OC(CO)C(O)C2(F)F)c(=O)n1 (configuration not stated) + Cc1cncc(-c2nc(NCCc3c[nH]c4ccccc34)c3ncn(C(C)C)c3n2)c1
**Result** 66.8

**Query** Also Nc1ncn(C2CC(O)C(CO)O2)c(=O)n1 (configuration not stated) + Cc1cncc(-c2nc(NCCc3c[nH]c4ccccc34)c3ncn(C(C)C)c3n2)c1 , if possible.
**Result** 99.2

**Query** Consider next the compound CC1COCCN1c1cc(C2(S(C)(=N)=O)CC2)nc(-c2ccnc3[nH]ccc23)n1 (configuration not stated) + Cc1ccccc1N=Nc1ccc(NC(=O)c2ccnn2C)c(C)c1 in the same way.
**Result** 95.3

**Query** Please do the same for Nc1ccccc1NC(=O)c1ccc(CNC(=O)OCc2cccnc2)cc1 + CC(CO)NC(=O)c1cc(-c2ccc(Cl)cc2)nn(-c2cnn(C)c2)c1=O as well.
**Result** 94.3
